- System: TK-10 renal
- protocol: NCI tumour cell line growth inhibition, 48 h
Form field: TGI (one value per entry).
Give the quantity in µM, number only.

Some entries whose results are on file:
• Cc1cc(N(CCNc2ccnc3cc(Cl)ccc23)Cc2ccco2)nc(Cl)n1 = 3.21
• CO/N=C(\C)COc1ccc2c(=O)c(-c3ccccc3)coc2c1 = 42.9
• c1cc(CNCCN2CCNCC2)ccn1 = 86.7
• COc1cc(/C=C/C(=O)c2ccc(NC(=O)CN3CCN(c4cc5c(cc4F)c(=O)c(C(=O)O)cn5C4CC4)CC3)cc2)cc(OC)c1OC = 12.9

Let's switch to this compound now.
For COCOc1c(C(O[Si](C)(C)C(C)(C)C)c2cnc(Sc3ccccc3)n2C)ccc(OC)c1OC (stereo not given) , what is its reported TGI?
16.3
